Experiment: Plasma pharmacokinetics, naïve pooled non-compartmental analysis (days 0 and 28)
Assay type: in vivo, human
Conditions: human, in vivo; Day 28, plasma; read-out: Cmax
QUANTITY: Cmax (µg/mL)

INSERT INTO results (compound_smiles, recorded_value) VALUES
  ('CC(C)OC(=O)[C@H](C)N[P@](=O)(OC[C@H]1O[C@@H](n2ccc(=O)[nH]c2=O)[C@](C)(F)[C@@H]1O)Oc1ccccc1', 1.07);

---

Test: Plasma pharmacokinetics, naïve pooled non-compartmental analysis (days 0 and 28)
Format: in vivo, human
Details: human, plasma, oral; Day 0; read-out: t1/2, terminal elimination half-life (converted)
Description: In addition, intensive drug level sampling was conducted in a subset of 40 participants, who were sequentially invited to join an ancillary PK study. […] In sampling schedule A, drug levels were measured at 0.5-, 2-, 4-, 6- and 24-hr post-dose; in sampling schedule B, drug levels were measured at 1-, 3-, 5-, 8- and 24-hr post-dose. Drug quantification was performed using liquid chromatography-tandem mass spectrometer at Mahidol Oxford Tropical Medicine Research Unit, Bangkok. […]
QUANTITY: half-life

INSERT INTO assay_data (compound_smiles, recorded_value) VALUES
  ('COC(=O)N[C@H](C(=O)N1CCC[C@H]1c1nc(-c2ccc(-c3ccc(-c4c[nH]c([C@@H]5CCCN5C(=O)[C@@H](NC(=O)OC)C(C)C)n4)cc3)cc2)c[nH]1)C(C)C', '7.31 h');
